Biological target: human Hsp90α N-terminal domain (Homo sapiens)

compound structure string | Kd
CC(C)c1cc(C(=O)N2Cc3ccc(CN4CCN(C)CC4)cc3C2)c(O)cc1O | < 100 nM
